tested on: A375; assay: Reverse Phase Protein Analysis (RPPA); type: cell-based, human; details: % change from DMSO (matched cell line)
readout: Avg (Caspase 3 CL D175) (%)
Answers are plain numbers, in %.

Known results for molecules:
Cc1cnc(Nc2ccc(F)cc2Cl)nc1-c1c[nH]c(C(=O)N[C@H](CO)c2cccc(Cl)c2)c1 [Vx-11e]; −9.27
Cn1nccc1Nc1nccc(-c2ccn([C@H](CO)c3ccc(Cl)c(F)c3)c(=O)c2)n1 [GDC-0994]; −16.74
CC(C)Nc1cc(-c2c[nH]c(C(=O)N[C@H](CO)c3cccc(Cl)c3)c2)c(Cl)cn1 [BVD-523]; −8.06

Kindly consider the entry below.
Any idea what Avg (Caspase 3 CL D175) came out for O=C(Nc1ccc2[nH]nc(-c3ccncc3)c2c1)[C@@H]1CCN(CC(=O)N2CCN(c3ccc(-c4ncccn4)cc3)CC2)C1 [SCH772984] on A375?
−9.87
